All figures here come from the supplement of paper PMC9112550.

system: Escherichia coli TOP10; experiment: shrunken log2 fold change of peptide-encoding DNA abundance (4.5 h post-induction vs induction); higher = less antimicrobial activity (less host growth inhibition); conditions: time post-induction: 4.5 h; library: site-saturation at positions 5, 18, 19, 20;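 further: peptides expressed intracellularly from a pBAD plasmid library in pooled LB shake-flask culture, induced with 0.3% L-arabinose, DNA abundance read by NGS, three biological replicates, DESeq2 with apeglm shrinkage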
value-kind: shrunken log2 fold change
Lab note: jot the number down without any unit.

The following sequences have reported results that may help.
sequence_entry=RRIRLRPPRLPRPRPRPDSPPRP target_system="Escherichia coli TOP10" numeric_readout=-0.119
sequence_entry=RRIRGRPPRLPRPRPRPYVAPRP target_system="Escherichia coli TOP10" numeric_readout=0.0436
sequence_entry=RRIRMRPPRLPRPRPRPAEQPRP target_system="Escherichia coli TOP10" numeric_readout=0.395

# query: shrunken log2 fold change of entry RRIRYRPPRLPRPRPRPDSMPRP
0.00804

Again, but for RRIRMRPPRLPRPRPRPDHAPRP
0.0825

Also, RRIRNRPPRLPRPRPRPMIAPRP please.
-0.42
